STUDY TARGET: Delta-type opioid receptor (Mus musculus, UniProt P32300)
Sequence (P32300 whole entry): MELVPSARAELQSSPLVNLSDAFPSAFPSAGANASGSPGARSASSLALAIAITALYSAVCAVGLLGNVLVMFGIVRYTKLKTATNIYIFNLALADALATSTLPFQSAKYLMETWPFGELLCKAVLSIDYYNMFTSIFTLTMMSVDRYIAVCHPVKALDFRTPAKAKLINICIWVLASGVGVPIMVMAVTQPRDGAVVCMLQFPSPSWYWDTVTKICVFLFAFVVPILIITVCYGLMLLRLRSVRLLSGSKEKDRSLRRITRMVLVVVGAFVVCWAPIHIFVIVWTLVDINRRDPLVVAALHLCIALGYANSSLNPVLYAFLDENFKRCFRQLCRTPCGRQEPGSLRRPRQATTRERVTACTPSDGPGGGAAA
PROCEDURE SUMMARY: Displacement of [3H]DPDPE from delta opioid receptor in mouse whole brain without cerebellum
OBSERVED PROPERTY: log10 of Ki (log10 of the value in nM)
Log scale reminder: Ki in nM, then log10 taken.

For the compound shown here, CN(C)c1ccc2nc3c(cc2c1)C[C@@]1(O)[C@H]2Cc4ccc(O)cc4[C@@]1(CCN2C)C3 , give the reported log10 of Ki.
-0.02

For the compound shown here, CN(C)c1cccc2cc3c(nc12)C[C@]12CCN(C)[C@H](Cc4ccc(O)cc41)[C@]2(O)C3 , give the reported log10 of Ki.
-0.20

For the compound shown here, CN(C)c1ccc2cc3c(nc2c1)C[C@]12CCN(C)[C@H](Cc4ccc(O)cc41)[C@]2(O)C3 , give the reported log10 of Ki.
0.22

For the compound shown here, Cc1ccc2nc3c(cc2c1)C[C@@]1(O)[C@H]2Cc4ccc(O)cc4[C@@]1(CCN2C)C3 , give the reported log10 of Ki.
-0.47

For the compound shown here, COc1ccc2nc3c(cc2c1)C[C@@]1(O)[C@H]2Cc4ccc(O)cc4[C@@]1(CCN2C)C3 , give the reported log10 of Ki.
-0.06

For the compound shown here, CN1CC[C@]23Cc4nc5ccc(O)cc5cc4C[C@@]2(O)[C@H]1Cc1ccc(O)cc13 , give the reported log10 of Ki.
0.39

For the compound shown here, CN1CC[C@]23Cc4nc5cccc(F)c5cc4C[C@@]2(O)[C@H]1Cc1ccc(O)cc13 , give the reported log10 of Ki.
-0.84

For the compound shown here, CN1CC[C@]23Cc4nc5c(O)cccc5cc4C[C@@]2(O)[C@H]1Cc1ccc(O)cc13 , give the reported log10 of Ki.
-1.04

For the compound shown here, CN1CC[C@]23Cc4nc5cc(Cl)ccc5cc4C[C@@]2(O)[C@H]1Cc1ccc(O)cc13 , give the reported log10 of Ki.
-0.39

For the compound shown here, CN1CC[C@]23Cc4nc5ccc(Cl)cc5cc4C[C@@]2(O)[C@H]1Cc1ccc(O)cc13 , give the reported log10 of Ki.
-0.23

For the compound shown here, CN1CC[C@]23Cc4nc5cccc([N+](=O)[O-])c5cc4C[C@@]2(O)[C@H]1Cc1ccc(O)cc13 , give the reported log10 of Ki.
-0.46

For the compound shown here, CN1CC[C@]23Cc4nc5cc(O)ccc5cc4C[C@@]2(O)[C@H]1Cc1ccc(O)cc13 , give the reported log10 of Ki.
-0.55

For the compound shown here, CN1CC[C@]23Cc4nc5cc(C(F)(F)F)ccc5cc4C[C@@]2(O)[C@H]1Cc1ccc(O)cc13 , give the reported log10 of Ki.
0.11

For the compound shown here, Cc1cccc2cc3c(nc12)C[C@]12CCN(C)[C@H](Cc4ccc(O)cc41)[C@]2(O)C3 , give the reported log10 of Ki.
-0.57

For the compound shown here, Cc1cccc2nc3c(cc12)C[C@@]1(O)[C@H]2Cc4ccc(O)cc4[C@@]1(CCN2C)C3 , give the reported log10 of Ki.
-0.83

For the compound shown here, CN1CC[C@]23Cc4nc5ccc(F)cc5cc4C[C@@]2(O)[C@H]1Cc1ccc(O)cc13 , give the reported log10 of Ki.
-0.14

For the compound shown here, CN(C)c1cccc2nc3c(cc12)C[C@@]1(O)[C@H]2Cc4ccc(O)cc4[C@@]1(CCN2C)C3 , give the reported log10 of Ki.
-0.21

For the compound shown here, COc1cccc2cc3c(nc12)C[C@]12CCN(C)[C@H](Cc4ccc(O)cc41)[C@]2(O)C3 , give the reported log10 of Ki.
-0.30

###

PROCEDURE SUMMARY: Selectivity ratio of Ki for kappa opioid receptor in guinea pig cerebellum to Ki for delta opioid receptor in mouse whole brain without cerebellum
OBSERVED PROPERTY: Ratio Ki
I only need the number, thanks.

For the molecule shown here, Cc1cccc2cc3c(nc12)C[C@]12CCN(C)[C@H](Cc4ccc(O)cc41)[C@]2(O)C3 , give the reported Ratio Ki.
637

For the molecule shown here, COc1ccc2nc3c(cc2c1)C[C@@]1(O)[C@H]2Cc4ccc(O)cc4[C@@]1(CCN2C)C3 , give the reported Ratio Ki.
89.1

For the molecule shown here, CN1CC[C@]23Cc4nc5ccc(Cl)cc5cc4C[C@@]2(O)[C@H]1Cc1ccc(O)cc13 , give the reported Ratio Ki.
226

For the molecule shown here, CN1CC[C@]23Cc4nc5cccc(C(F)(F)F)c5cc4C[C@@]2(O)[C@H]1Cc1ccc(O)cc13 , give the reported Ratio Ki.
399

For the molecule shown here, CN1CC[C@]23Cc4nc5cc(F)ccc5cc4C[C@@]2(O)[C@H]1Cc1ccc(O)cc13 , give the reported Ratio Ki.
1610

For the molecule shown here, CN1CC[C@]23Cc4nc5c(O)cccc5cc4C[C@@]2(O)[C@H]1Cc1ccc(O)cc13 , give the reported Ratio Ki.
731

For the molecule shown here, COc1ccc2cc3c(nc2c1)C[C@]12CCN(C)[C@H](Cc4ccc(O)cc41)[C@]2(O)C3 , give the reported Ratio Ki.
95.5

For the molecule shown here, CN(C)c1ccc2nc3c(cc2c1)C[C@@]1(O)[C@H]2Cc4ccc(O)cc4[C@@]1(CCN2C)C3 , give the reported Ratio Ki.
362

For the molecule shown here, Oc1ccc2c3c1O[C@H]1c4[nH]c5ccccc5c4C[C@@]4(O)[C@@H](C2)N(CC2CC2)CC[C@]314 , give the reported Ratio Ki.
53.2

For the molecule shown here, CN1CC[C@]23Cc4nc5cc([N+](=O)[O-])ccc5cc4C[C@@]2(O)[C@H]1Cc1ccc(O)cc13 , give the reported Ratio Ki.
280

For the molecule shown here, CN1CC[C@]23Cc4nc5c(Cl)cccc5cc4C[C@@]2(O)[C@H]1Cc1ccc(O)cc13 , give the reported Ratio Ki.
539

For the molecule shown here, CN1CC[C@]23Cc4nc5c([N+](=O)[O-])cccc5cc4C[C@@]2(O)[C@H]1Cc1ccc(O)cc13 , give the reported Ratio Ki.
763

For the molecule shown here, CN1CC[C@]23Cc4nc5ccc(F)cc5cc4C[C@@]2(O)[C@H]1Cc1ccc(O)cc13 , give the reported Ratio Ki.
268

For the molecule shown here, CN1CC[C@]23Cc4nc5ccccc5cc4C[C@@]2(O)[C@H]1Cc1ccc(O)cc13 , give the reported Ratio Ki.
960

For the molecule shown here, CN1CC[C@]23Cc4nc5cc(Cl)ccc5cc4C[C@@]2(O)[C@H]1Cc1ccc(O)cc13 , give the reported Ratio Ki.
978

###

PROCEDURE SUMMARY: Selectivity ratio of Ki for kappa opioid receptor in guinea pig cerebellum to Ki for delta opioid receptor in mouse whole brain without cerebellum
Hi! Just check whether Ratio Ki is below 100. Below gives Condition met, equal or above gives Condition not met.

Below 100 on Ratio Ki? Entry CN1CC[C@]23Cc4nc5ccc([N+](=O)[O-])cc5cc4C[C@@]2(O)[C@H]1Cc1ccc(O)cc13
Condition met

Below 100 on Ratio Ki? Entry COc1cccc2cc3c(nc12)C[C@]12CCN(C)[C@H](Cc4ccc(O)cc41)[C@]2(O)C3
Condition not met

Below 100 on Ratio Ki? Entry CN1CC[C@]23Cc4nc5cccc(O)c5cc4C[C@@]2(O)[C@H]1Cc1ccc(O)cc13
Condition met

Below 100 on Ratio Ki? Entry COc1cccc2nc3c(cc12)C[C@@]1(O)[C@H]2Cc4ccc(O)cc4[C@@]1(CCN2C)C3
Condition not met

Below 100 on Ratio Ki? Entry CN1CC[C@]23Cc4nc5cccc([N+](=O)[O-])c5cc4C[C@@]2(O)[C@H]1Cc1ccc(O)cc13
Condition not met

Below 100 on Ratio Ki? Entry Cc1ccc2nc3c(cc2c1)C[C@@]1(O)[C@H]2Cc4ccc(O)cc4[C@@]1(CCN2C)C3
Condition not met

Below 100 on Ratio Ki? Entry CN1CC[C@]23Cc4nc5ccc(O)cc5cc4C[C@@]2(O)[C@H]1Cc1ccc(O)cc13
Condition met

Below 100 on Ratio Ki? Entry Cc1ccc2cc3c(nc2c1)C[C@]12CCN(C)[C@H](Cc4ccc(O)cc41)[C@]2(O)C3
Condition not met

Below 100 on Ratio Ki? Entry CN1CC[C@]23Cc4nc5c(F)cccc5cc4C[C@@]2(O)[C@H]1Cc1ccc(O)cc13
Condition not met

Below 100 on Ratio Ki? Entry CN1CC[C@]23Cc4nc5cccc(F)c5cc4C[C@@]2(O)[C@H]1Cc1ccc(O)cc13
Condition not met

Below 100 on Ratio Ki? Entry CN1CC[C@]23Cc4nc5cccc(Cl)c5cc4C[C@@]2(O)[C@H]1Cc1ccc(O)cc13
Condition not met

Below 100 on Ratio Ki? Entry CN1CC[C@]23Cc4nc5c(C(F)(F)F)cccc5cc4C[C@@]2(O)[C@H]1Cc1ccc(O)cc13
Condition not met

Below 100 on Ratio Ki? Entry CN(C)c1ccc2cc3c(nc2c1)C[C@]12CCN(C)[C@H](Cc4ccc(O)cc41)[C@]2(O)C3
Condition not met

Below 100 on Ratio Ki? Entry Cc1cccc2nc3c(cc12)C[C@@]1(O)[C@H]2Cc4ccc(O)cc4[C@@]1(CCN2C)C3
Condition not met

Below 100 on Ratio Ki? Entry CN(C)c1cccc2cc3c(nc12)C[C@]12CCN(C)[C@H](Cc4ccc(O)cc41)[C@]2(O)C3
Condition not met

Below 100 on Ratio Ki? Entry CN1CC[C@]23Cc4nc5cc(O)ccc5cc4C[C@@]2(O)[C@H]1Cc1ccc(O)cc13
Condition met

Below 100 on Ratio Ki? Entry CN1CC[C@]23Cc4nc5ccc(C(F)(F)F)cc5cc4C[C@@]2(O)[C@H]1Cc1ccc(O)cc13
Condition not met

Below 100 on Ratio Ki? Entry CN(C)c1cccc2nc3c(cc12)C[C@@]1(O)[C@H]2Cc4ccc(O)cc4[C@@]1(CCN2C)C3
Condition not met
